Origin of the recorded values: ChEMBL document CHEMBL1142226

- protocol_summary: Cmax in human at 0.86 mg/kg, po
- Format: ADME, organism-based
- Design: dose 0.86 mg/kg, route oral
- particulars: in vivo
outcome_measure: Cmax (ng/mL)
Express your answer in ng/mL, writing the number without its unit.

Lab book: Cmax of COc1cc2nc(N3CCCN(C(=O)N4CCOCC4)CC3)cc(N)c2c(-c2ccc(F)cc2)c1OC noted as 63

----------
- protocol_summary: Volume of distribution in Beagle dog at 0.5 mg/kg, iv
- Format: ADME, organism-based, Canis lupus familiaris
- Set-up: dose 0.5 mg/kg, route intravenous
- particulars: in vivo
Measured Vd by item
A number alone suffices; assume L/kg.

Some entries whose results are on file:
* COc1cc2nc(N3CCc4ncccc4C3)nc(N)c2c(-c2ncccn2)c1OC | 5.1
* COc1cc2nc(N3CCCN(C(=O)N4CCOCC4)CC3)nc(N)c2cc1-c1ccccn1 | 4.3
* COc1cc2nc(N3CCCN(C(=O)N4CCOCC4)CC3)cc(N)c2c(-c2ccccc2)c1OC | 2.8
* COc1cc2nc(N3CCCN(C(=O)N4CCOCC4)CC3)cc(N)c2c(-c2ccc(F)cc2)c1OC | 4.8
* COc1cc2c(cc1OC)CN(c1nc(N3CCCN(C(=O)N4CC(O)C(O)C4)CC3)nc3cc(OC)c(OC)cc13)CC2 (configuration not stated) | 10

Please fill in: Vd reported for COc1cc2nc(N3CCCN(C(=O)N4CCOCC4)CC3)nc(N)c2c(-c2ccccn2)c1OC = 2.2

Looking up COc1cc2nc(N3CCCN(C(=O)N4CCOCC4)CC3)cc(N)c2c(-c2ncco2)c1OC , I found its Vd recorded as 1
